Assayed Target: TGF-β1 raised in mice by acute liver damage (CCl4) (mouse, UniProt P04202 279-390, limits assumed)
Sequence (P04202 279-390 limits assumed): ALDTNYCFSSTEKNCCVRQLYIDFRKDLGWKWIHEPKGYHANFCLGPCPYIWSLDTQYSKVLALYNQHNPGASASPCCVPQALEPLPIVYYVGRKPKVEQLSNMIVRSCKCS
Test Description: cell-based or functional assay
Endpoint Label: % Inhibition (type I collagen mRNA induction, acute liver damage model in mice)
State the value, then name its unit.

# Binder, Result
rows = [
    ("RRFHFHSRMVAVDNS (15-aa peptide) [peptide identified by SEQ ID NO: 20]", "1.41%"),
    ("TSLDASIIWAMMQN [peptide identified as P144 in the Spanish patent application ES 2146552 A1 (SEQ ID NO: 51)]", "-3.51%"),
    ("RLAHSHRHRSHVALT (15-aa peptide) [peptide identified by SEQ ID NO: 4]", "51.3%"),
]

Please give the measured % Inhibition (type I collagen mRNA induction, acute liver damage model in mice) for this binder: DRRIFWWSLRSAPGA (15-aa peptide) [peptide identified by SEQ ID NO: 1]
0.69%

FYI, the data here is from patent US20100222280A1.
